Origin of measurements: ChEMBL document CHEMBL4513216

What cytotoxicity at 10 µM was measured for each of the following?
experiment: Toxicity liver stage against HepG2, at 10uM; format: cell-based; design: test concentration 10 uM, cell line HepG2-A16-CD81EGFP; conditions: human, HepG2-A16-CD81EGFP cells; read-out: INHIBITION
Number only, in %; omit the unit.

Task item: State the recorded cytotoxicity at 10 µM for this entry: "CCc1nc(-c2cccc(C(=O)O)c2)no1"
Reply: -10

Task item: Next: Cc1cc(C)nc(N2CCCC(c3cccc(-n4ccnc4)n3)C2)n1 (configuration not stated)
Reply: -0.252

Task item: Can you handle "COCc1ncn2c1CN(S(=O)(=O)Cc1ccc(C)cc1)CC2" next?
Reply: 0.854

Task item: Queued: "O=C(O)c1cccc(N2CCC(Oc3cccc(F)c3)CC2)n1"
Reply: -44.1

Task item: Next up: "O=C(N[C@@H]1CCNC[C@H]1O)c1ccc(O)c(Cl)c1"
Reply: -5.46

Task item: Try "CC1=C(C#N)C(=O)NC(=O)/C1=C\c1c(C)[nH]n(-c2ccccc2)c1=O" next.
Reply: 0.137

Task item: Next record, please: Cc1nn(C)cc1CN1CCCC(n2c(=O)oc3ccccc32)C1 (configuration not stated)
Reply: 3.33

Task item: Again, but for "CN(C)C(=O)N1Cc2ccccc2C2(CCN(C3CCOCC3)CC2)C1"
Reply: 7.21

Task item: Query "CC(C)OCc1nn(C)c2c1CN(Cc1cccs1)CC2" next
Reply: -99.5

Task item: Next compound: "CNC(=O)C(C)(C)N1CCC[C@H]1C(=O)NCCN1CCOCC1"
Reply: 3.29

Task item: Then Cn1c(=O)oc2cc(S(=O)(=O)N3CCC(c4ccccc4)C3)c(Cl)cc21 (configuration not stated) ?
Reply: 12.4

Task item: Also "c1cc(-c2nc(CN3CCn4c(nnc4C4CC4)C3)cs2)cs1" , if possible.
Reply: -2.22

Task item: What about CCCc1noc(CN2CCCC2c2c(C)nn(C)c2OC)n1 (configuration not stated) ?
Reply: 9.94

Task item: Input "O=C(CCn1ccc2ccccc21)N1CCC(Nc2cccnc2)CC1"
Reply: 9.08

Task item: Please answer likewise for "CCc1cc(N(C)Cc2ccno2)n2nc(C)c(C)c2n1"
Reply: 1.35

Task item: Try this compound too: CCCC1CCCN(C(=O)Nc2cccnc2OC)CC1 (configuration not stated)
Reply: 4.52

Task item: Thanks! And CCn1c(SCC(=O)O)nnc1C(C)NC(=O)c1ccc(Cl)cc1 (configuration not stated) ?
Reply: 3.52

Task item: Quick one: "CCCc1nc(N2CCCCCC2)c2c(n1)c(C)nn2CC"
Reply: 39.4

Task item: And the next one, CN1CC(=O)N(c2ccccc2)CC12CCN(Cc1nccs1)C2 (configuration not stated) ?
Reply: 3.33

Task item: Same for "CC(C)NC(=O)N1CCC[C@H]1C(=O)NCCCc1cnn(C)c1"
Reply: 0.00333

Task item: Do the same for "CC(C)NC(=O)c1ccc2c(c1)C1(CCN(C)CC1)C(=O)N2" please
Reply: -0.201

Task item: Continue with "COc1ncc(CN2C[C@@H]3CC[C@@](O)(c4ccc(C)cn4)[C@@H]3C2)cn1"
Reply: -10.3

Task item: Similarly, "CC(C)CSCCCNC(=O)C1CCC1" ?
Reply: -4.47

Task item: Also "O=C1CCN(C(=O)C2(c3ccc(F)cc3)CCCCC2)CCN1" ?
Reply: -7.4

Task item: Do the same for "O=C(NCC1CC1)[C@@H]1CCO[C@@H]2CCN(CCc3ccccc3)C[C@H]21" please
Reply: 1.14

Task item: Another compound to check: "CNC(=O)c1ccc(CN(C(C)C)C(C)C)o1"
Reply: -1.88

Task item: Can you handle CC(C)N1CCCCC1c1nc(N(C)C)ncc1I (configuration not stated) next?
Reply: -3

Task item: Also Cc1nn(C)c(N(C)C)c1CNCC(O)COc1ccc(F)cc1 (configuration not stated) ?
Reply: 0.769

Task item: Next compound: Cc1nc(C)n(CC2CCCN2Cc2cn3ccccc3n2)n1 (configuration not stated)
Reply: -3.05

Task item: Next compound up: CC(NCc1nnc2n1CCCC2)c1nc(-c2cccs2)no1 (configuration not stated)
Reply: -39.5

Task item: What do you have for CC1CN(CC(=O)NC2CCCC2)CCN1c1ccc2nncn2n1 (configuration not stated) ?
Reply: -1.58

Task item: Same thing, different compound: "O=C1[C@H]2CN(Cc3ccncc3)C[C@H]2CN1c1cncnc1"
Reply: -0.748

Task item: Proceed to CC(=O)N1CCc2ccc(S(=O)(=O)N3CCCCC3C)cc21 (configuration not stated)
Reply: -10.3

Task item: Now give it for "c1ccc(-c2nc3c(c(NCCn4cccc4)n2)CCNCC3)nc1" too.
Reply: -51.9

Task item: Also need "Cc1cccc(CN2C[C@@H]3COC[C@]3(COc3ccc(C#N)cn3)C2)n1" , thanks.
Reply: -21.2

Task item: Now the same for Cc1nc(C)n(CC2CCCN2CC(=O)NCCC2=CCCCC2)n1 (configuration not stated)
Reply: -0.527

Task item: Lookup "CCCc1nnc(NCCc2noc(C3CC3)n2)o1"
Reply: 0.0902

Task item: Quick one: "Cc1ncsc1CN1CC[C@H]2OCC[C@@]2(C(=O)NCC2CC2)C1"
Reply: 2.4

Task item: Similarly, CC1(C)CC(N2CCN(C3CCCC3)C(CCO)C2)CC(C)(C)C1 (configuration not stated) ?
Reply: -7.19

Task item: Next compound up: CS(=O)(=O)N1CC(=O)N(CCCc2ccccc2)CC(O)C1 (configuration not stated)
Reply: -7.99

Task item: Entry CCn1nc(C)cc1S(=O)(=O)N1CCC2(CCCN(C(C)C)C2=O)C1 (configuration not stated) please
Reply: -16.3

Task item: Do the same for "Cc1ccccc1CNC(=O)c1ccccc1-n1cnc(CN)c1" please
Reply: -7.22

Task item: // repeat for "CN1CCC(Cc2noc(-c3cn(Cc4ccc(F)cc4)nn3)n2)CC1" and report
Reply: -4.18

Task item: What do you have for "COc1ccc(-n2cc3nc(N4CCCC4)[nH]cc-3c2=O)cc1Cl" ?
Reply: 11.6

Task item: Please answer likewise for "CC(=O)N1CCN(CC=C(C)C)CC1"
Reply: 3.95

Task item: Now consider "Cc1nccc(CNC(=O)N2CCN(Cc3ccccc3)C[C@H]2C)n1" .
Reply: -128

Task item: How about CC(C)C(C)NC(=O)c1cccn1Cc1cccnc1 (configuration not stated) ?
Reply: -44
